Target: Poly [ADP-ribose] polymerase tankyrase-2 (Homo sapiens, UniProt Q9H2K2)
Sequence (Q9H2K2 whole entry, the tested form may be a part): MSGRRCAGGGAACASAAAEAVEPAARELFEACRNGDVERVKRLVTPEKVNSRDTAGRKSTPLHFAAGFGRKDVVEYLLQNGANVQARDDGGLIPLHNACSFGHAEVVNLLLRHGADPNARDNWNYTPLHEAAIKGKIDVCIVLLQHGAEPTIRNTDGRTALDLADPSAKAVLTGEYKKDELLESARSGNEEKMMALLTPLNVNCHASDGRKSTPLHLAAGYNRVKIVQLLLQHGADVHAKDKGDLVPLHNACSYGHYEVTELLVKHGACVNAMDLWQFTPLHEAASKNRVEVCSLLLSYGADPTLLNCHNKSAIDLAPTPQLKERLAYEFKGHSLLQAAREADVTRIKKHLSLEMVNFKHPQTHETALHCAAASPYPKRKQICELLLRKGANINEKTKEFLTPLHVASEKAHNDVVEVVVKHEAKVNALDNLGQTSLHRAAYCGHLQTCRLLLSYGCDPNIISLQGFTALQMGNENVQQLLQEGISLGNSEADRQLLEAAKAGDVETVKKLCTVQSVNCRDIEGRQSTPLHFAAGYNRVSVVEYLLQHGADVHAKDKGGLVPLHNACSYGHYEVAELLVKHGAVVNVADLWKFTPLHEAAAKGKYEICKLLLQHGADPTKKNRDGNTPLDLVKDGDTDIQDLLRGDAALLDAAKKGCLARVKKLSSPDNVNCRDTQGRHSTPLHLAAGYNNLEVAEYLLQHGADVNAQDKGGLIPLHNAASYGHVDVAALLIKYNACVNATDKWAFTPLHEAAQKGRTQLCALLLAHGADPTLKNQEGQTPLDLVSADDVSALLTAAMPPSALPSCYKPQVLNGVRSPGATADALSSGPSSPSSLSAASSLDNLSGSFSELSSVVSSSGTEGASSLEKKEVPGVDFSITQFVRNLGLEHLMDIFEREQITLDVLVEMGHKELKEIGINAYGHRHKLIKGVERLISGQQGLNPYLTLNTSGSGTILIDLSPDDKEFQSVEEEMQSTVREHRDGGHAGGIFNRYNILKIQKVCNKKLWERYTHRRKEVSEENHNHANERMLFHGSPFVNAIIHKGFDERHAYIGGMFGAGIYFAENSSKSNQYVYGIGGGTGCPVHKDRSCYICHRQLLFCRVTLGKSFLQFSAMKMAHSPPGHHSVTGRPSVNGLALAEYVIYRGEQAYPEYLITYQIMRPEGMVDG
Experiment: Inhibition of recombinant human N-terminal TEV cleavage site-fused/FLAG-poly his-tagged TNKS2 ARC5-SAM-PARP domain (613 to 1166 residues) expressed in Escherichia coli assessed as reduction in auto-PARylation preincubated for 10 mins followed by biotinylated-NAD+ addition and measured after 45 mins by ELISA
# key: entry, value: IC50
property: IC50 (nM)

O=C1N(CCO)c2cc(F)cc(F)c2C12CCN(c1nc3c(c(=O)[nH]1)CCCC3)CC2	20.6
CN1CCc2c1nc(N1CCC3(CC1)CN(CCO)c1cc(F)cc(F)c13)[nH]c2=O	73.6
CN(C)c1cc(F)c2c(c1)N(C)C(=O)C21CCN(c2nc3c(c(=O)[nH]2)CCCN3C)CC1	13
CN1CCCc2c1nc(N1CCC3(CC1)C(=O)N(C)c1cc(OCCN4CCOCC4)cc(F)c13)[nH]c2=O	17.1
Cn1ccc2c(=O)[nH]c(N3CCC4(CC3)C(=O)N(CCO)c3cc(F)cc(F)c34)nc21	10.2
CN1CCc2c1nc(N1CCC3(CC1)C(=O)N(CCO)c1cc(F)cc(F)c13)[nH]c2=O	27.6
C[C@@H]1CN(c2cc(F)c3c(c2)N(C)C(=O)C32CCN(c3nc4c(c(=O)[nH]3)CCCN4C)CC2)C[C@H](C)N1	20.2
C[C@@H]1CN(c2cc(F)c3c(c2)N(C)C(=O)C32CCN(c3nc4c(c(=O)[nH]3)CCCN4C)CC2)C[C@H](C)O1	39.2
